- Test system: A498 renal
- test_method_notes: NCI-60 one-dose screen, 48 h (100 = growth as untreated, 0 = no growth, -100 = all killed)
- test_settings: 10 µM unless noted
About 83,000 compounds went through this panel and 20% of them were active in at least one assay; those are over-represented in the sample as a whole. Activity calls are given as the source filed them. The calls were made as follows: active = growth percent below 10; inactive = the rest.
Entries annotated with measured growth

Observe how each entry below is paired with its result.
| compound | growth |
| --- | --- |
| CNC(=O)CCN1CCN(CC/C=C2\c3ccccc3Sc3ccc(Cl)cc32)CC1 | 74.5% (inactive) |
| CCCCn1c(=O)c2c(nc3n2CCCN3CCc2ccc(OCC(=O)NCCN(CC)CC)cc2)n(CCCC)c1=O | 1.86% (active) |
| NS(=O)(=O)c1cnccc1Oc1cccc2cccnc12 | 99.1% (inactive) |
| CCSC1=NC2C(N(CC)C(=O)N2CC)N1/N=C/C=C/c1ccccc1[N+](=O)[O-] (centres undefined) | -5.18% (active) |
| O=C(Nc1cccc(Oc2nnc(Cl)c3ccccc23)c1)Nc1ccc(Cl)c(C(F)(F)F)c1 | -82.7% (active) |

Incoming: Quick check: growth of Cc1cc(C)c2c(-c3nnc(N)s3)cc(=O)oc2c1 ?
Outgoing: 79.9% (inactive)
